assay target: CETP (Homo sapiens, UniProt P11597)
Construct: from tissue; host or cells: human plasma
Sequence (P11597 18-493): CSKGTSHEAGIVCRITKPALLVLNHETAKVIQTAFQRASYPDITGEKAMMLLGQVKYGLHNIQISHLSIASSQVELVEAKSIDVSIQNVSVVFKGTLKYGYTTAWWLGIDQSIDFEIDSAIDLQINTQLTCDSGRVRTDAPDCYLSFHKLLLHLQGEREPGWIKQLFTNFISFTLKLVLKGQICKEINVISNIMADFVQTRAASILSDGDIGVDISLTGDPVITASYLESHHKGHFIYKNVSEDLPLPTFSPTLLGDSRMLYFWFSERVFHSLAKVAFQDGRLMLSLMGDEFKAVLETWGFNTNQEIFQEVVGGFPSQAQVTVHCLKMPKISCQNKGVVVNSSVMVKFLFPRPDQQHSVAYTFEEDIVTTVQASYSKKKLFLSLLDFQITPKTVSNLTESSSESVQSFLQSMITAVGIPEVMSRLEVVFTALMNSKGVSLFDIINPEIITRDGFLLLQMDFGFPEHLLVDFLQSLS
assay name: Measurement of CETP inhibitory action in human plasma (Roar Biomedical CETP Activity kit, fluorescence)
Format: biochemical
condition summary: human plasma incubated with compound at 37° C. for 4 hours; calculated from CETP inhibitory rate at two or more concentrations; read-out: IC50 (concentration inhibiting the CETP activity by 50%)
Label scheme for potency estimated from few doses: lower than 0.1 µM is not fulfilled, 0.1 µM and above is fulfilled.

1) CCN(CC1CCCC1)c1nc2c(cc1CN(c1ncc(OCCS(C)(=O)=O)cn1)C(C)c1cc(C(F)(F)F)cc(C(F)(F)F)c1)c(C)nn2C (stereo not drawn)	not fulfilled
2) CCN(CC1CCCC1)c1ccc(OC)nc1CN(c1ncc(OCCS(C)(=O)=O)cn1)C(C)c1cc(C(F)(F)F)cc(C(F)(F)F)c1 (stereo not drawn)	fulfilled
3) CCN(CC1CCCC1)c1ccc(OC)nc1CN(c1ncc(OCC[S+](C)[O-])cn1)C(C)c1cc(C(F)(F)F)cc(C(F)(F)F)c1 (stereo not drawn)	fulfilled
4) CCN(CC1CCCC1)c1nc2ccccc2cc1CN(Cc1cc(C(F)(F)F)cc(C(F)(F)F)c1)c1ncccn1 [Comparative Compound 1, reference compound]	fulfilled
5) CCN(CC1CCCC1)c1nc(C)ccc1CN(c1ncc(OCCS(C)(=O)=O)cn1)C(C)c1cc(C(F)(F)F)cc(C(F)(F)F)c1 (stereo not drawn)	fulfilled
6) CCN(CC1CCCC1)c1nc2ccc(C)cc2cc1CN(c1ncc(OCCS(C)(=O)=O)cn1)C(C)c1cc(C(F)(F)F)cc(C(F)(F)F)c1 (stereo not drawn)	not fulfilled
